ASSAY SYSTEM: GST-ALK5 (Homo sapiens)
Sequence (P36897 34-503): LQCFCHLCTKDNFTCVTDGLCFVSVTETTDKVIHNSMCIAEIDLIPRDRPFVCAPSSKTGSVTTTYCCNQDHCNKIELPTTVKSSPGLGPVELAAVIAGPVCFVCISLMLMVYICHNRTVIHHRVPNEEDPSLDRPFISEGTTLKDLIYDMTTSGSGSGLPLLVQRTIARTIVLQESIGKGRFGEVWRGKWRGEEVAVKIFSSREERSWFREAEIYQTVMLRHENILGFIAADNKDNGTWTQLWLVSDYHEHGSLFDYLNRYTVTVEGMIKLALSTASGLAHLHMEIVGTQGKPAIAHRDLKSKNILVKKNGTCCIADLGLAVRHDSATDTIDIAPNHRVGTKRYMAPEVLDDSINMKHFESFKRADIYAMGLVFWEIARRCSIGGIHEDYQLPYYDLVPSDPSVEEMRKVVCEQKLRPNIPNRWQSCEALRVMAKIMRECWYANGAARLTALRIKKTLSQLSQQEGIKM
OBSERVABLE: IC50 (nM)

Check out these entries, answers already filled in.
COc1cc(-c2cnc3sc(NCCOc4ccccc4)nn23)cc(OC)c1OC ... 780
COc1cc(-c2cnc3sc(NCCc4ccccn4)nn23)cc(OC)c1OC ... 270
Cc1cc(-c2cnc3sc(NCc4ccco4)nn23)cc(C)c1O ... 240
COc1cc(-c2cnc3sc(NCc4cccs4)nn23)ccc1O ... 740

A. CC(=O)c1cccc(-c2cnc3sc(NCCN4CCOCC4)nn23)c1
B. COc1cc(-c2cnc3sc(NCCN4CCOCC4)nn23)cc(OC)c1OC
Inquiry: Thinking about recorded IC50 values, which is higher, A or B ? API: response body contains the label of the selected item.
Reply text: A

// provenance: patent US8389554B2
